pKd for assorted binders
- test.target: T1, human serum albumin (human, UniProt P02768 25-609)
- T1 construct: bought protein, amine-coupled to a CM5 chip; also called Human SA; HSA
- test.name: SPR (Biacore 8K), albumin immobilised, 25 C, 1:1 kinetics
In plain terms, pKd is the concentration in mol/L turned into minus its base-10 logarithm.

INS Analog 28 (other, single-chain insulin B-L2-A-L1-VHH fusion; also called Ex. 28) FVSQHLCGSHLVEALRLVCGERGFFYTPKTGGGGGGGIVEQCCHSICSLYQLENYCGPGPQPGPQPGPQPGPQPGPQPGPQPGPQPGPQEVQLLESGGGLVQPGGSLRLSCAASGRYIDETAVAWFRQAPGKEREFVAGIGGGVDITYYADSVKGRFTISRDNSKNTLYLQMNSLRPEDTAVYYCAARPGRPLITSKVADLYPYWGQGTLVTVSSPP    9.14
INS Analog 30 (other, single-chain insulin B-L2-A-L1-VHH fusion; also called Ex. 30) FVSQHLCGSHLVEALRLVCGERGFHYTPKTGGGGGGGIVEQCCHSICSLYQLENYCGPGPQPGPQPGPQPGPQPGPQPGPQPGPQPGPQEVQLLESGGGLVQPGGSLRLSCAASGRYIDETAVAWFRQAPGKEREFVAGIGGGVDITYYADSVKGRFTISRDNSKNTLYLQMNSLRPEDTAVYYCAARPGRPLITSKVADLYPYWGQGTLVTVSSPP    9.14

Next binder, pKd to be filled in.
## Input Item INS Analog 26 (other, single-chain insulin B-L2-A-L1-VHH fusion; also called Ex. 26) FVSQHLCGSHLVEALRLVCGERGFFYTPKTGGGGGGGIVEQCCTSICSLYQLENYCGPGPQPGPQPGPQPGPQPGPQPGPQPGPQPGPQEVQLLESGGGLVQPGGSLRLSCAASGRYIDETAVAWFRQAPGKEREFVAGIGGGVDITYYADSVKGRFTISRDNSKNTLYLQMNSLRPEDTAVYYCAARPGRPLITSKVADLYPYWGQGTLVTVSSPP : provide pKd
## Output 9.31
